# apparent Kd per record follows
Tested on: MS2 coat protein
Experiment: apparent Kd, MS2 coat protein; higher = weaker binding; RNA-MaP array
Conditions: ligand present: tryptophan; designed as: ON switch for tryptophan
property.label: apparent Kd (nM)

record.sequence	system	property.label	endpoint.result
UCGCUAUUGUCGGCCGCCACUACUGCAGGGAAACAAAUAUAACCACAUGAGGAUCACCCAUGUCUUAGGACCGGGACACCCAUCU	MS2 coat protein	apparent Kd	80.7
AUUAACAUGAGGAUCACCCAUGUUCUCACACGAGGACCGGUACGGCCGCCACUCGGUUUGGUAUUGGUCACUAGGCAGUUAGGAG	MS2 coat protein	apparent Kd	17.6
AGCGACAUGAGGAUCACCCAUGUACAUUCCCGAGGACCGGUACGGCCGCCACUCGAUGGAAGUGGUAGCAGCUUGGAUGGGCCUA	MS2 coat protein	apparent Kd	26.7
CGUUAAGAAUCGGCCGCCACUCCAUACGUGUGAAUCGCGGAUCGACAUGAGGAUCACCCAUGUCGGAGGACCGGGAUCCUCUUUC	MS2 coat protein	apparent Kd	23.3

* * *

Tested on: MS2 coat protein
Assay: apparent Kd, MS2 coat protein; higher = weaker binding; RNA-MaP array
Details: ligand present: flavin mononucleotide; designed as: ON switch for flavin mononucleotide

record.sequence	apparent Kd
UAAAGGUUCCAGAAGGCCACGACUCGAUCCUGUGGAGGAUAUGGGACAUGAGGAUCACCCAUGUCUGGUGGAUUACAUCCCACA	32.2 nM
AUACGAGCCAAGAAGGAGGGAGAUCCUGCAGUCCUAGGAUAUUGGCCACAAUCGGCGGACGACAUGAGGAUCACCCAUGUCCCG	16 nM
ACCAUCACAUGAGGAUCACCCAUGUAAAUAACUACAUAGACGGAGGAUAUCACAAUAACAGCGAAAGAGAAGGCCGGUGUAAAA	8.1 nM
CAUUUACAUGAGGAUCACCCAUGUUAGUAAUGCUGAGGAUAUGGUCCACGCUCCUAUUUACCAGAAGGCAGUCUUG	13.8 nM
ACCCAACAUGAGGAUCACCCAUGUGCAUGCCUCGGAGGAUAUGACCUCAUUCAUCUUUGAUCAGAAGGCCGAUCGC	26 nM
UGGCCGUAGAAGAAGGAGGACACCGUUUUGUCACGGACAUGAGGAUCACCCAUGUAGAUAAUUGCCUAGGAUAUUCGCUCAUUU	7.52 nM
GACAACCACAUGAGGAUCACCCAUGUUUACAUACACAAGGGAAGAAGGGAACCUAAAGGAUCAAAUCAGGAUAUUCGUAUUGUA	19.5 nM

* * *

Tested on: MS2 coat protein
Assay: apparent Kd, MS2 coat protein; higher = weaker binding; RNA-MaP array
Conditions: ligand present: flavin mononucleotide; designed as: ON switch for flavin mononucleotide

record.sequence	apparent Kd
UUCUGUUCCAAGAAGGUCAAAAUUGAUGCCUCUGAAGGAUAUUGGACAGCCAAGGUCUGUGACAUGAGGAUCACCCAUGUUCAG	6.14 nM
AGCUGGGCUGAGAAGGCGUAUCGCUGUUAAGUGACAUGAGGAUCACCCAUGUAAUUACGAGGCUACGAGGAUAUCAACUAUGGA	15.5 nM
CCGAUGAUGAUAGGAUAUCUAGGAGUUAAGACGCCGUCUACAUGAGGAUCACCCAUGUUUCGAUUAGAGAAGGAUCGGGAUUCG	7.13 nM
UAAGUGCUCACAUGAGGAUCACCCAUGUAUUUACUUAUGAGGAGAAGGAUCAAGGAGCAGCGGUGAUAGGAUAUCCUAAUAGAA	23.6 nM
ACAACAAAACAGAAGGCCUUAAAUUACAUGAGGAUCACCCAUGUUACACUAUACAAACAGAACAAGGAGGAUAUGUAAGACUGA	8.65 nM
AUAAAAUGCUUAGGAUAUGUAACAGCAUGCACAUGAGGAUCACCCAUGUUAUAUUUAGUGGAAUGACAGAAGGAAGUAGAGACU	13.5 nM
UAGACUCAGUAGAAGGAUGAUAUUACGAUAUAACGUGACAUGAGGAUCACCCAUGUCUUCUGGUCAUAGGAUAUACGCGAAAUG	21.3 nM
